assay_protocol: TOX21_p53_BLA_p4_viability: Viability Assessment in the Tox21 HCT-116 p53 Agonism Beta-lactamase Assay, Phase 4 (AID 2283597);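 further: hits lower the luminescence signal meaning cytotoxicity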
Description: TOX21_p53_BLA_p4 is a cell-based, single-readout assay that uses HCT116, a human intestinal cell line, […] in a 1536-well plate.TOX21_p53_BLA_p4_viability is an assay readout measuring cellular ATP content and detected with CellTiter-Glo Luciferase-coupled ATP quantitation.TOX21_p53_BLA_p4_viability used a type of viability reporter where loss-of-signal activity can be used to understand changes in the cell viability. […]
Inconclusive results are not listed. Activity calls are given as the source filed them. How the source made its calls: active means hit-call score of the fitted dose curve at least 0.9, where 1 is the maximum; inconclusive means response in the unintended direction; inactive means score below 0.9.
Give your call using only these classes: Y (active), N (inactive)

Completed entries (count: 8):
- molecule: "CC(O)COCC(C)O (stereo not drawn)"
  assigned_class: "N"
- molecule: "CCCO"
  assigned_class: "N"
- molecule: "CC(C)OB(OC(C)C)OC(C)C"
  assigned_class: "N"
- molecule: "CC(=O)c1ccc2ccccc2c1"
  assigned_class: "N"
- molecule: "CC(=O)c1cccnc1"
  assigned_class: "N"
- molecule: "O=S1(=O)CC(Cl)(Cl)C(Cl)(Cl)C1"
  assigned_class: "Y"
- molecule: "C=CCCCCCCCCC(=O)OCC"
  assigned_class: "N"
- molecule: "CCCCCCCCCCCCCC(=O)OCC"
  assigned_class: "N"

*Q* Hi team, can someone confirm the assay call for `[Cu+]` ?
*A* N

*Q* Per the assay record, what outcome was assigned to `Nc1ccn([C@H]2CC[C@@H](CO)O2)c(=O)n1` ?
*A* N

*Q* Hi team, can someone confirm the assay call for `NC(=O)c1cccnc1` ?
*A* N

*Q* # fetch the recorded call for `CC(C)COC(=O)c1ccccc1O` here
*A* N

*Q* Please share the test call associated with `CC/C=C\C#N` .
*A* N

*Q* // outcome(item) with item = `CCOC(=O)COC(=O)c1ccccc1C(=O)OCC`
*A* N

*Q* Hi, sorry to bother you, what did the test record for CC(O)CNCC(C)O (stereo not drawn) ?
*A* N

*Q* What did this assay record as the result for `NCCN1CCNCC1` ?
*A* N

*Q* Write down the call the test reported for this molecule. Item: CC1(C)CC(N)CC(C)(CN)C1 (stereo not drawn)
*A* N

*Q* What classification did `CCCCCCOC(C)=O` end up with in this test?
*A* Y

*Q* // param item: `CC1(C)CC(=O)CC(C)(C)N1` ; yields the recorded call
*A* N

*Q* Which outcome was entered for the molecule `CCCCCCCCCCCCCCCCCC(=O)OCCCCCCCCCCCCCC(C)C` in this test?
*A* N

*Q* Write down the call the test reported for this molecule. Item: `CC/C=C\CCOC(=O)C(C)C`
*A* N

*Q* Dear colleague, could you share the recorded outcome for `CC(=O)CCc1ccc(O)cc1` when you have a moment?
*A* N

*Q* Hello, I am checking results. What call was entered for `CNC(=C[N+](=O)[O-])NCCSCc1ccc(CN(C)C)o1` ?
*A* N

*Q* Any idea what this test logged for `CCCCCCOc1ccc(O)cc1` ?
*A* Y

*Q* What did the test return for `CCCCCCCCCCCCS` ?
*A* N

*Q* Returns: the outcome recorded for `COc1ccccc1O` in this assay.
*A* N

*Q* What classification did `c1coc(CNc2ncnc3nc[nH]c23)c1` end up with in this test?
*A* N

*Q* For `C[C@]12CC[C@@H]3c4ccc(O)cc4CC[C@H]3[C@@H]1CC[C@@H]2O` , what call appears in the results of this test?
*A* N
